assay-target: T1, human APRIL protein (human, UniProt O75888 105-250, limits assumed)
T1 construct: Bought protein; also called recombinant APRIL protein
T1 sequence (looked up): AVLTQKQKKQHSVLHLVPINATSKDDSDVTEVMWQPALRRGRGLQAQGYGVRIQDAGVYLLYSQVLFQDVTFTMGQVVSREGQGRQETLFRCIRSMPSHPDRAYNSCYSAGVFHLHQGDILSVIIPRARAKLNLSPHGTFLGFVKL
protocol-summary: ELISA, coated APRIL; antibody 0.107 nM
measured-endpoint: OD450 nm

Reference set (5 entries):
93C6F10D3 (antibody, V domains shown) VH: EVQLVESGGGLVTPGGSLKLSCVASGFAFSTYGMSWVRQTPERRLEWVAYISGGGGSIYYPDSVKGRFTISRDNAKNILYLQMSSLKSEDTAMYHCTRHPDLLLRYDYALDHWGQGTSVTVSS VL: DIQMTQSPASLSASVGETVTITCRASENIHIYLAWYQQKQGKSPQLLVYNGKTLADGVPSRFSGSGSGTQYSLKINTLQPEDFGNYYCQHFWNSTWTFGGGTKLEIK
0.0551
111D10D6G3 (antibody, V domains shown, Mouse hybridoma antibody purified on Protein G) VH: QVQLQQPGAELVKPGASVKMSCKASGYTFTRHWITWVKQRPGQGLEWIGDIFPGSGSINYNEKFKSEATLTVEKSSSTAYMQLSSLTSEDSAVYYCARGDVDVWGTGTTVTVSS VL: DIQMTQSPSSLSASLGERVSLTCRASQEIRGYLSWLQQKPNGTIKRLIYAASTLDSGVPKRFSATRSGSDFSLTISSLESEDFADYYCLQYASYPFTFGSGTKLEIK
0.0536
L1D12 (antibody, human IgG1, V domains shown, also called LID12) VH: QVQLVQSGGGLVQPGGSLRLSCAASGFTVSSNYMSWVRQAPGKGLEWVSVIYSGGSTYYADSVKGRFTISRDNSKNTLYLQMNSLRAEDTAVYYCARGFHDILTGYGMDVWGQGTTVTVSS VL: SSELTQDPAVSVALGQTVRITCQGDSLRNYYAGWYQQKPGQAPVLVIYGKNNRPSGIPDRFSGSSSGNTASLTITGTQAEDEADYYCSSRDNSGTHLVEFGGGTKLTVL
0.0678
8E7D9C7F5 (antibody, V domains shown) VH: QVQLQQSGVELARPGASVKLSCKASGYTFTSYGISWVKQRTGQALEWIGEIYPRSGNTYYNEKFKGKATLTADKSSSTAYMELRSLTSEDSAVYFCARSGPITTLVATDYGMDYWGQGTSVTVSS VL: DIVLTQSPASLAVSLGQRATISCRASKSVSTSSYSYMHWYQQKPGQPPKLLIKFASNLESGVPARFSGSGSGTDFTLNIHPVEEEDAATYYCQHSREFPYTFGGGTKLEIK
0.0558
89A2G5E7 (antibody, V domains shown, Mouse hybridoma antibody purified on Protein G) VH: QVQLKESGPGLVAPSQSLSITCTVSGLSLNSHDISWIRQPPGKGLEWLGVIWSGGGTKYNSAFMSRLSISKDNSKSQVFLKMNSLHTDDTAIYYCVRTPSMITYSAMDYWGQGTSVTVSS VL: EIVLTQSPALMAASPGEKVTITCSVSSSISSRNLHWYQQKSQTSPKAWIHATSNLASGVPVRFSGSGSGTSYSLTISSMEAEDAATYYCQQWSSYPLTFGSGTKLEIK
0.0548

State the recorded OD450 nm for every item in the following list.
1. 67A2E1D10 (antibody, V domains shown, Mouse hybridoma antibody purified on Protein G) VH: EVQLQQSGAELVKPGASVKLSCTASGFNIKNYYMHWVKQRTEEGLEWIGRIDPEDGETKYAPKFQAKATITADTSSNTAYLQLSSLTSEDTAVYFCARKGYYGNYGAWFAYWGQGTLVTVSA VL: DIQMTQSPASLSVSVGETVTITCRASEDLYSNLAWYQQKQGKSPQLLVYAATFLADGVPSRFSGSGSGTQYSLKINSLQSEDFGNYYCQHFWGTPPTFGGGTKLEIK
2. L9G7 (antibody, human IgG1, V domains shown) VH: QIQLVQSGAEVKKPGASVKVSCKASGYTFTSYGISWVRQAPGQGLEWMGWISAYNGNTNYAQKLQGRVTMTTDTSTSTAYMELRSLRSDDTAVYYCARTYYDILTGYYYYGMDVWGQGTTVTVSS VL: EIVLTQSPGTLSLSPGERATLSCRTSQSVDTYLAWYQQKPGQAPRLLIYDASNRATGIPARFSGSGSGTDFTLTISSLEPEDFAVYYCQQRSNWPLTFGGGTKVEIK

Data returned:
1. 0.0588
2. 0.0861

Data request: Report OD450 nm for 2-1G11 (antibody, human IgG1, V domains shown) VH: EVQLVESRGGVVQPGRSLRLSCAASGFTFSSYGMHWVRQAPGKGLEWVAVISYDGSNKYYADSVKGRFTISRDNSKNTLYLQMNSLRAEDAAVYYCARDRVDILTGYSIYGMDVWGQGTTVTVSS VL: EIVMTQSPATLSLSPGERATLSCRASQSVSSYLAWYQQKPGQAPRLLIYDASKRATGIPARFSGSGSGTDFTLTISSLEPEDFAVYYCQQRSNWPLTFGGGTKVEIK please.
Data returned: 0.0699
